pIC50: −log10 of the molar value.
From various publications: pIC50 for 72 kDa type IV collagenase (Homo sapiens).
Recorded endpoint: pIC50

{"Compound": "O=C(NO)[C@H]1CN(S(=O)(=O)NC(=O)N2CCCCC2)CCN1S(=O)(=O)c1cc(F)c(Oc2ccc(Cl)cc2)c(F)c1", "Recorded endpoint": "pIC50", "Comparison symbol": ">", "Experimental value": 7.30}
{"Compound": "CC1c2ccc(N=[N+]=[N-])c(O)c2C(=O)C2=C(O)C3(O)C(=O)C(C(N)=O)=C(O)C(N(C)C)C3C(O)C21 (centres unmarked)", "Recorded endpoint": "pIC50", "Comparison symbol": "=", "Experimental value": 3.87}
{"Compound": "O=C(O)[C@H]1[C@H](Cn2nnc3ccc(C(F)(F)F)cc3c2=O)CC[C@@H]1C(=O)c1ccc(OCCCC2CCCCC2)cc1 (racemic)", "Recorded endpoint": "pIC50", "Comparison symbol": "=", "Experimental value": 5.55}
{"Compound": "CCCCCCCOc1ccc(C(=O)Nc2ccc(S(=O)(=O)CC(C)(O)C(=O)NO)cc2)cc1 (centres unmarked)", "Recorded endpoint": "pIC50", "Comparison symbol": ">", "Experimental value": 10.00}
